B1: FAM46D (parent)
chain: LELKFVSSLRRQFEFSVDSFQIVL

Variants of: B1
run-description: protein stability index of a GFP-peptide fusion (GPS, HEK-293T) (PSI 1-6); higher = more stable;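 further: lentivirally expressed fusions sorted by FACS into six bins by GFP to DsRed ratio, PSI derived from sequencing read proportions per bin multiplied by bin number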
study-conditions: c terminus: a fixed tail appended
Please go through the items and note down their protein stability index.
Lab note: record the figure alone, no unit after it.

Prompt: Value lookup for protein stability index; key = S7H
Completion: 3.18

Prompt: Fill blank: measured protein stability index of the variant F15N is ____.
Completion: 4.46

Prompt: Form field: reported protein stability index of Q21D
Completion: 2.69

Prompt: I'd like to know its protein stability index. The variant in question is F20C
Completion: 2.73

Prompt: Which protein stability index is reported for this variant? V17A
Completion: 2.4

Prompt: // protein stability index lookup, key: S7R
Completion: 2.91

Prompt: Item under review: E2F . Reported protein stability index?
Completion: 2.6

Prompt: // query protein stability index value for entry Q12K
Completion: 3.09

Prompt: Returns the measured protein stability index for the input variant. Input: K4M
Completion: 4.16

Prompt: Name the recorded protein stability index for L1S .
Completion: 2.57

Prompt: // returns reported protein stability index for input S7G
Completion: 2.76

Prompt: Form field: reported protein stability index of V23G
Completion: 1.94

Prompt: What value of measured protein stability index is listed for E2W ?
Completion: 2.81
